Molecular target: recombinant homotrimeric HA, A/Solomon Islands/3/06 H1N1 (Influenza A virus A/Solomon Islands/3/06 (H1N1))
Assay: trimeric HA microarray, transfection set 5
Settings: remark: other sources report otherwise
Overview of recorded Trimeric HA Binding RLU for various binders
Give a bare numeral; the unit RLU is implied.

// known answers, use as guide
>  <BINDER>
TCN-553 (5261_C18) (antibody, V domains shown) VH: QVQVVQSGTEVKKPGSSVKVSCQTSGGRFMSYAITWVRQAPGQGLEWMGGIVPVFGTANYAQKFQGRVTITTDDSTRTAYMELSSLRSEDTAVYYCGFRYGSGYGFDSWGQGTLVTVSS VL: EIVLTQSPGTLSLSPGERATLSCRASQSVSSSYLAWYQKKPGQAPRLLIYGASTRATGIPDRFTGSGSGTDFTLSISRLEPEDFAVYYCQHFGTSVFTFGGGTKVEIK

>  <READING UNIT>
RLU

>  <Trimeric HA Binding RLU>
49600

$$$$
>  <BINDER>
TCN-557 (5081_A04) (antibody, V domains shown) VH: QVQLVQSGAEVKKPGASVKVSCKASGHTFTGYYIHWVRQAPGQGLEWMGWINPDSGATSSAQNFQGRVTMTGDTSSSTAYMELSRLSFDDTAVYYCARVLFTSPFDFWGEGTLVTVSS VL: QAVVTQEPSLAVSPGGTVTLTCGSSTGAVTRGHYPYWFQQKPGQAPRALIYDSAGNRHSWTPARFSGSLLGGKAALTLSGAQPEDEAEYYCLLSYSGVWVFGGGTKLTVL

>  <READING UNIT>
RLU

>  <Trimeric HA Binding RLU>
27000

$$$$
>  <BINDER>
TCN-544 (5082_A19) (antibody, V domains shown) VH: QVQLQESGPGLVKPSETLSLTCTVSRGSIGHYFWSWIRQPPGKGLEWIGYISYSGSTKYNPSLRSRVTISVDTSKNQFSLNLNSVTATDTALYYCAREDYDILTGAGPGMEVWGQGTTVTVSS VL: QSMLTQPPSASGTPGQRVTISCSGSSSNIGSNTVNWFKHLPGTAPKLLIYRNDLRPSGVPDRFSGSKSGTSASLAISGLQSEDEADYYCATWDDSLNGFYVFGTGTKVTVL

>  <READING UNIT>
RLU

>  <Trimeric HA Binding RLU>
997

$$$$
>  <BINDER>
TCN-550 (5096_F06) (antibody, V domains shown) VH: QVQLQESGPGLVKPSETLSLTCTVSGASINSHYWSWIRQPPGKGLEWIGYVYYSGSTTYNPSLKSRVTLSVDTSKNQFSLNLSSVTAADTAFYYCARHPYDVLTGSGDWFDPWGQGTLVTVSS VL: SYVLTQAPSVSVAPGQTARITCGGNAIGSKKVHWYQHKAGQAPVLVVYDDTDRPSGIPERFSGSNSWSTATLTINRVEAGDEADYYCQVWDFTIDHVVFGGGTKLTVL

>  <READING UNIT>
RLU

>  <Trimeric HA Binding RLU>
758

$$$$

Next item in the queue.
QUERY: Assign Trimeric HA Binding RLU to the following record: TCN-558 (5248_H10b) (antibody, V domains shown) VH: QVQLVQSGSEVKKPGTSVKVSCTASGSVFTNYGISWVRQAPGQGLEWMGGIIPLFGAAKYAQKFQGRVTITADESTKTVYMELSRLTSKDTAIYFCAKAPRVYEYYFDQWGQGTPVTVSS VL: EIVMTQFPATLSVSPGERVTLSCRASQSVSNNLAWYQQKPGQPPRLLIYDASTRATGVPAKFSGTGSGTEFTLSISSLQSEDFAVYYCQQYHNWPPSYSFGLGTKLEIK
RESULT: 36100
